Molecular target: AURORA B (Homo sapiens)
Sequence (Q96GD4 whole entry): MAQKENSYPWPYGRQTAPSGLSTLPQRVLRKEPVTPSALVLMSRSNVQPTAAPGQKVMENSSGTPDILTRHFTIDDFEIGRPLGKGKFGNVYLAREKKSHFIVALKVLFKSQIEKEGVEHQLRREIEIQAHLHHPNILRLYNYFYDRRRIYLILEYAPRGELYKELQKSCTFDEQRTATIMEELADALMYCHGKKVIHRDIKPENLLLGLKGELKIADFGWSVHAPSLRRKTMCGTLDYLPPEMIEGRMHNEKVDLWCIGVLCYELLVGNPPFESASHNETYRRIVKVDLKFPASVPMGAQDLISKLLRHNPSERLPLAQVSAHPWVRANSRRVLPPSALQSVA
Test: In vitro filtration assay for AURORA B inhibitory activity
Format: biochemical
Conditions: peptide (C(LRRWSLG)×4), 1 μM unlabeled ATP, 25° C. 40 minutes, read-out: Aurora B see C.3 (pIC50) (converted)
PARAMETER: IC50

Reference set (5 entries):
O=C(NCCN1CCOCC1)c1ccc(Nc2ncc3cnn(C4CCCCC4)c3n2)cc1 :: 1260 nM
COCCCN1CCC(NC(=O)c2ccc(Nc3ncc4cnn(C5CCCCC5)c4n3)cc2)CC1 :: 501 nM
CN1CCN(c2ccc(Nc3ncc4cnn([C@H]5C[C@@H]6CC[C@H]5C6)c4n3)cc2)CC1 (single isomer, unassigned) [Co. No. 23] :: 158 nM
CN1CCC(NCc2ccc(Nc3ncc4cnn([C@H]5C[C@@H]6CC[C@H]5C6)c4n3)cc2)CC1 :: 1000 nM
c1cc(Nc2ncc3cnn(C4CCOCC4)c3n2)ccc1CNCCN1CCOCC1 :: > 10000 nM

response.value for O=c1[nH]c2cnc(Nc3ccc(CNC4CCNCC4)cc3)nc2n1C1CCCCC1 (field: IC50) = > 10000 nM

// CN1CCN(c2ccc(Nc3ncc4cnn(C5CCCCC5)c4n3)cc2Cl)CC1 : IC50 value = > 10000 nM

So for CN1CCC(NCc2ccc(N(C(=O)OC(C)(C)C)c3ncc4cnn(C5CCOCC5)c4n3)cc2)CC1 , the logged IC50 turned out to be > 10000 nM

====

PARAMETER: melting point

Below, each entry is followed by its recorded melting point result.
CN1CCN(c2ccc(Nc3ncc4cnn(C5CCCCC5)c4n3)cc2)CC1 :: 180 °C
CN1CCN(c2ccc(Nc3ncc4[nH]c(=O)n(C5CCCCC5)c4n3)cc2)CC1 :: 294 °C

Query CN1CCN(c2ccc(Nc3ncc4c(=O)[nH]n(C5CCCCC5)c4n3)cc2)CC1 yields melting point of > 260 °C

So, O=S(=O)(c1ccc(Nc2ncc3cnn(C4CCCCC4)c3n2)cc1)N1CCOCC1 ? Its melting point was 240 °C

Reported melting point of O=C(NC1CCN(CCO)CC1)c1ccc(Nc2ncc3cnn(C4CCCCC4)c3n2)cc1 : 177 to 181 °C

Value of measured melting point for the entry CN1CCN(c2ccc(Nc3ncc4ncn(C5CCCCC5)c4n3)cc2)CC1 : 203.5 to 203.6 °C

====

List of IC50 values.
Target: AURORA A (Homo sapiens)
Sequence (O14965 whole entry): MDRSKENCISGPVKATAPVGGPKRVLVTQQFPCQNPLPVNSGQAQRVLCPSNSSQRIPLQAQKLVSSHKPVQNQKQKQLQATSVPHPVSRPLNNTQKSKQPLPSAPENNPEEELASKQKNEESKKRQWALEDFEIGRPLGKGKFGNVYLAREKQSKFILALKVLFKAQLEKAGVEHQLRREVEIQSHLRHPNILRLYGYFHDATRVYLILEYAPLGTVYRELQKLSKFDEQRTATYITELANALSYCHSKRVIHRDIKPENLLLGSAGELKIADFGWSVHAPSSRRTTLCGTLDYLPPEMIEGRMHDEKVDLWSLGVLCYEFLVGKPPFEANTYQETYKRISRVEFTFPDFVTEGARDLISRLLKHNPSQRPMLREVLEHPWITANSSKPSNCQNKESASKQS
Test: In vitro filtration assay for AURORA A inhibitory activity
Type: biochemical
Conditions: Kemptide substrate, 1 μM unlabeled ATP, 25° C. 40 minutes, read-out: Aurora A see C.2 (pIC50) (converted)
Numeric only. Scale: nM

Guide cases for IC50, answers given:
CN1CCN(c2ccc(Nc3ncc4c(=O)[nH]n(C5CCCC5)c4n3)cc2)CC1 :: 7940
OCCCC1CCN(c2ccc(Nc3ncc4cnn(C5CCCC5)c4n3)cc2)CC1 :: 50.1
CC(C)(O)CN1CCN(C(=O)c2ccc(Nc3ncc4cnn(C5CCCCC5)c4n3)cc2)CC1 :: 126
CN1CCN(c2ccc(Nc3ncc4cnn([C@H]5C[C@@H]6CC[C@H]5C6)c4n3)cc2)CC1 [compound 16] :: 398
OCCN1CCN(c2ccc(Nc3ncc4cnn(C5CCCCC5)c4n3)cc2)CC1 :: 631
O=S(=O)(c1ccc(Nc2ncc3cnn(C4CCCCC4)c3n2)cc1)N1CCOCC1 :: 501
OCCCC1CCN(c2ccc(Nc3ncc4cnn(C5CCCCC5)c4n3)cc2)CC1 :: 50.1
CN1CCN(Cc2ccc(Nc3ncc4cnn([C@H]5C[C@@H]6CC[C@H]5C6)c4n3)cc2)CC1 [compound 36] :: 251
c1cc(Nc2ncc3cnn(C4CCCCC4)c3n2)ncc1N1CCOCC1 :: 2510
CC(C)(O)CN1CCC(NCc2ccc(Nc3ncc4cnn(C5CCCCC5)c4n3)cc2)CC1 :: 1000

response.value for CN1CCN(Cc2ccc(N(C(=O)OC(C)(C)C)c3ncc4cnn([C@H]5C[C@@H]6CC[C@H]5C6)c4n3)cc2)CC1 (field: IC50) = 6310

Sure, the documented IC50 for c1ccc(N2CCN(Cc3ccc(Nc4ncc5cnn(C6CCCCC6)c5n4)cc3)CC2)nc1 is 251

Data provenance: patent US7947695B2
